# target-system: Lysosomal acid glucosylceramidase (Homo sapiens) (UniProt P04062)
# Sequence (P04062 whole entry, looked up): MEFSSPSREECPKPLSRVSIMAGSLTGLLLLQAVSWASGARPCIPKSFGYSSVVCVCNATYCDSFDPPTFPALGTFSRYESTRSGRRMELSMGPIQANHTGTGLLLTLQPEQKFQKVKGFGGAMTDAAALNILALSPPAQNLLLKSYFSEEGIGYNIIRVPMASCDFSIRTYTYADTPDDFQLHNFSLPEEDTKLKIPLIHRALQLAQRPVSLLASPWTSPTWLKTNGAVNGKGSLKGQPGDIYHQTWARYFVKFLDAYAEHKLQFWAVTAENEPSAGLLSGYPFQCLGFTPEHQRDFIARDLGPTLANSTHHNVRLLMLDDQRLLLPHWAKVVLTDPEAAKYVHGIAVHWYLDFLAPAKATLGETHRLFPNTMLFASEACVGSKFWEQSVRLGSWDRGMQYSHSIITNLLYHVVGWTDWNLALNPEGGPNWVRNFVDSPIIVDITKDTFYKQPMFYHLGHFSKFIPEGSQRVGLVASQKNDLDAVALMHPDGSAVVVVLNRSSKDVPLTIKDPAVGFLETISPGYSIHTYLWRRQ
# assay: Glucocerebrosidase-p2 (AID 348); further: potency means the concentration at half of the fitted maximal effect
# conditions-used: purified GBA, blue fluorogenic substrate, 40 min
The source made the active and inactive calls. No stated cut-off is given here; in the data, active means potency below about 10 µM; inactive means the rest.
metric-name: Potency

>>> recorded_value("COc1ccc(-n2c(=O)c(-c3cccs3)nc3cnc(OC)nc32)cc1")
"> 11.4 µM (inactive)"
>>> recorded_value("CC(=O)NCCNc1cc(-c2ccccc2C)ncn1")
"> 11.4 µM (inactive)"
>>> recorded_value("O=c1c(-c2cc(F)cc(F)c2)nc2cnc(N3CCOCC3)nc2n1Cc1cccs1")
"> 11.4 µM (inactive)"
>>> recorded_value("Cc1noc(C)c1-c1ccc2ncnc(N(C)C)c2c1")
"> 11.4 µM (inactive)"
>>> recorded_value("FC(F)(F)c1ccccc1-c1cc(NCCN2CCOCC2)ncn1")
"> 11.4 µM (inactive)"
>>> recorded_value("CC(C)CN1CCC2(CC1)CCN(C(=O)c1csnn1)CC2")
"> 11.4 µM (inactive)"
>>> recorded_value("O=C(c1csnn1)N1CCC2(CCCN(c3ccccc3)C2)CC1")
"> 11.4 µM (inactive)"
>>> recorded_value("COC(=O)N1CCC[C@@]2(CCN(C(=O)Nc3cccc(F)c3)C2)C1")
"> 11.4 µM (inactive)"
>>> recorded_value("COCCn1c(=O)c(-c2cc(F)cc(F)c2)nc2cnc(N3CCNCC3)nc21")
"> 11.4 µM (inactive)"
>>> recorded_value("CCNc1ncc2nc(-c3cn(C)c4ccccc34)c(=O)n(-c3ccccc3)c2n1")
"> 11.4 µM (inactive)"
>>> recorded_value("COc1ccccc1CNc1cc(-c2c(C)noc2C)ncn1")
"> 11.4 µM (inactive)"
>>> recorded_value("Cc1cccc(CNc2ncnc3ccc(-c4ccccc4CN(C)C)cc23)c1")
"> 11.4 µM (inactive)"
>>> recorded_value("Cc1ccccc1-c1cncnc1N(C)Cc1ccco1")
"> 11.4 µM (inactive)"
>>> recorded_value("Cc1ccccc1-c1nccc(Nc2ccc(F)cc2)n1")
"> 11.4 µM (inactive)"
>>> recorded_value("O=c1c(-c2ccc(Cl)cc2)nc2cnc(N3CCOCC3)nc2n1C[C@H]1CCCO1")
"> 11.4 µM (inactive)"
>>> recorded_value("COCCn1c(=O)c(CCc2ccccc2)nc2cnc(N3CCN(C)CC3)nc21")
"> 11.4 µM (inactive)"
>>> recorded_value("CN(C)Cc1ccccc1-c1cc(NC2CC2)ncn1")
"> 11.4 µM (inactive)"
>>> recorded_value("COC(=O)N1CCC[C@@]2(CCN(c3ccncc3)C2)C1")
"> 11.4 µM (inactive)"
>>> recorded_value("O=C(Nc1cccc(F)c1)N1CCC2(CC1)CCN(S(=O)(=O)c1ccccc1)CC2")
"> 11.4 µM (inactive)"
>>> recorded_value("COc1cccc(-c2cncnc2NC2CCNCC2)c1")
"> 11.4 µM (inactive)"
>>> recorded_value("Cc1ccccc1-c1cncnc1NCc1cccs1")
"> 11.4 µM (inactive)"

---

# target-system: Dual specificity protein kinase CLK4 (Homo sapiens) (UniProt Q9HAZ1)
# Sequence (Q9HAZ1 whole entry, looked up): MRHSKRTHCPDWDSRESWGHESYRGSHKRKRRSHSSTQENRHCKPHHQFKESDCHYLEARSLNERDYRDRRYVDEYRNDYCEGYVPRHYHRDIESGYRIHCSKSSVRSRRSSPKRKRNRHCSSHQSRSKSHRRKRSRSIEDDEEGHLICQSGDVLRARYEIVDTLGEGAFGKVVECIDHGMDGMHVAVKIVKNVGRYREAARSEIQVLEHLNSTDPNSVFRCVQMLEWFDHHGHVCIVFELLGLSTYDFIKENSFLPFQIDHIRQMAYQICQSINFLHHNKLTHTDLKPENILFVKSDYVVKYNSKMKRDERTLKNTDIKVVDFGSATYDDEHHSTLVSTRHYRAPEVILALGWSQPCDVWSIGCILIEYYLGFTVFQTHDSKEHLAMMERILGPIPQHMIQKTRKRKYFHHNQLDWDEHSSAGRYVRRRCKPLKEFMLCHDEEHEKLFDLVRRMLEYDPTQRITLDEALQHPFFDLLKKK
# assay: qHTS Assay for Inhibitors of CDC-like Kinase 4 (ADP-FP Assay) (AID 1795); further: nearly all actives have a fitted effect of over 60% in size
# conditions-used: Transcreener ADP fluorescence polarization; series mostly up to 50 µM
Inconclusive results are not listed. Activity calls are given as the source filed them. The call rests on the fitted dose curve; in most records, active means well fitted inhibition curve with a large enough effect; inconclusive means small, poorly fitted or top-dose-only effect; inactive means flat fitted curve, though single readings scatter.
Outcome codes: active, inactive

>>> class_name("c1nc(N2CCNCC2)c2cc(-c3ccoc3)ccc2n1")
"active"
>>> class_name("c1csc(CNc2cc(-c3ccoc3)ncn2)c1")
"inactive"
>>> class_name("COc1cccc(-c2cncnc2N(C)Cc2ccco2)c1")
"inactive"
